// values below are reported unfolding free energy
B1: Subtilisin-chymotrypsin inhibitor-2A, P01053 (parent)
chain: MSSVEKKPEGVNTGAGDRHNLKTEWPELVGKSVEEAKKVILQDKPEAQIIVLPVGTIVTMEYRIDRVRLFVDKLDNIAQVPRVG

- Variants of: B1
- measurement context: Hordeum vulgare; pH 6.25; 25 °C; GdnHCl; Fluorescence; MES 50 mM; reversible: yes; structure 2CI2; whole UniProt chain shown

| mutant designation | unfolding free energy [kcal/mol] |
| --- | --- |
| D43A | 6.55 |
| E34Q | 7.2 |
| Q48M M60L | 7.42 |
| T56S | 6.62 |
| D72A | 4.46 |
| L52A | 5.86 |
| T56V | 6.03 |
| K22A E27A | 6.43 |
| L52V F70A | 4.34 |
| T56A | 6.18 |
| R63A D65A | 5.14 |
| E34D | 6.83 |
| S32A | 6.58 |
| L52V | 6.58 |
| E27Q | 7.03 |
| K37G | 5.59 |
| L52A V58A | 4.65 |
| V39A | 7.54 |
| I40V | 6.63 |
| Q42A | 7.06 |
| K73N | 6.39 |
| Q42G | 6.68 |
| P81A | 4.1 |
| S32A E34A E35A | 6.85 |
| D65A | 6.58 |
| I57A | 6.32 |
| K38G | 6.02 |
| F70V | 6.19 |
| L52I | 6.59 |
